B1: VPS39 (parent)
chain: ITEEKVCMVCKKKIGNSAFARYPN

Variants of: B1
assay.method.text: protein stability index of a GFP-peptide fusion (GPS, HEK-293T) (PSI 1-6); higher = more stable;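 further: lentivirally expressed fusions sorted by FACS into six bins by GFP to DsRed ratio, PSI derived from sequencing read proportions per bin multiplied by bin number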
condition.notes: c terminus: a fixed tail appended
readout.name: protein stability index

variant.identifier | observed.result
G15Y | 2
I14K | 2.49
M8C | 2.44
C10H | 3.32
S17N | 2.17
V9T | 2.51
R21S | 2.58
I14Q | 2.14
N24F | 1.85
K13P | 2.27
K11R | 1.98
T2M | 2.02
S17W | 2.14
S17G | 2.52
F19G | 3.29
Y22D | 3.12
V9E | 3.53
K11W | 1.69
I14T | 3.06
Y22A | 2.57
E3T | 1.97
F19M | 2.39
F19S | 2.56
A20Q | 2.74
K12N | 2.8
A20W | 2.16
Y22N | 2.72
I1W | 2.33
C7P | 3.64
S17P | 2.47
E4Q | 2.38
V6K | 2.95
A20M | 2.43
G15M | 2.23
N16M | 1.54
R21E | 3.15
K11Q | 2.29
F19C | 3.52
M8Y | 1.94
A18W | 2.08
Y22L | 2.22
Y22T | 2.95
M8A | 2.91
V6R | 2.44
T2E | 2.72
I1D | 3.39
